Each recorded value in this set is attributed to PubChem BioAssay AID2060898.

# Tested on: 616215-338-R-J1-PDC complex spheroid viability
# assay-text: Anticancer human tumor 616215-338-R-J1-PDC patient-derived colon adenocarcinoma cell line growth inhibition [RAS]
# reported-conditions: curve of first compound; second compound 0.3 µM
measured-attribute: IC50 (nM)
Please give a number only; it is taken to be in nM.

molecule	unit-info	IC50
CC(C)n1nc(-c2ccc3oc(N)nc3c2)c2c(N)ncnc21 + CCn1c(-c2cccnc2C(C)OC)c2c3cc(ccc31)N1CCOC(CC(NC(=O)C(C(C)C)N(C)C(=O)C3(F)CCN(C(=O)C#CC(C)(C)N(C)C)CC3)C(=O)N3CCCC(N3)C(=O)OCC(C)(C)C2)C1	nM	66.2

// query Return IC50 measured with 616215-338-R-J1-PDC complex spheroid viability given this molecule: CC1(O)CCCC1n1c(=O)c(C(F)F)cc2cnc(NC3CCN(S(C)(=O)=O)CC3)nc21 (centres undefined) + CCn1c(-c2cccnc2C(C)OC)c2c3cc(ccc31)N1CCOC(CC(NC(=O)C(C(C)C)N(C)C(=O)C3(F)CCN(C(=O)C#CC(C)(C)N(C)C)CC3)C(=O)N3CCCC(N3)C(=O)OCC(C)(C)C2)C1
// result 830

###

# viability, T/C per entry
# System: 616215-338-R-J1-PDC complex spheroid viability
# assay-text: Anticancer human tumor 616215-338-R-J1-PDC cell line growth inhibition [RAS];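 also: spheroids exposed to agents for seven days before viability readout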;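 as to viability, T/C: 100% = DMSO vehicle control viability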
# reported-conditions: second compound 10 µM; first compound 0.00316 µM; stronger effect = lower value

Study these solved cases before continuing.
molecule	viability, T/C
CC(C)n1nc(-c2ccc3oc(N)nc3c2)c2c(N)ncnc21 + C#Cc1c(F)ccc2cc(O)cc(-c3ncc4c(N5CC6CCC(C5)N6)nc(OCC56CCCN5CC(F)C6)nc4c3F)c12	68.2%
C=CC(=O)Nc1cc(Nc2nccc(-c3cn(C)c4ccccc34)n2)c(OC)cc1N(C)CCN(C)C + C#Cc1c(F)ccc2cc(O)cc(-c3ncc4c(N5CC6CCC(C5)N6)nc(OCC56CCCN5CC(F)C6)nc4c3F)c12	67.2%

// query Reported viability, T/C for C=CC(=O)N1CCN(c2nc(OCC3CCCN3C)nc3c(F)c(-c4nc(N)cc(C)c4C(F)(F)F)c(Cl)cc23)C(C)C1 (stereo not drawn) + C#Cc1c(F)ccc2cc(O)cc(-c3ncc4c(N5CC6CCC(C5)N6)nc(OCC56CCCN5CC(F)C6)nc4c3F)c12 : what is it?
// result 102%

###

Items are presented alongside their recorded IC50.
# Tested on: 616215-338-R-J1-PDC complex spheroid viability
# assay-text: Anticancer human tumor 616215-338-R-J1-PDC cell line growth inhibition [RAS];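 also: spheroids exposed to agents for seven days before viability readout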
# reported-conditions: curve of first compound; second compound 3.16 µM
Give your result in nM as a bare value.

compound	IC50 / nM
CC(C)NCC(C(=O)N1CCN(c2ncnc3c2C(C)CC3O)CC1)c1ccc(Cl)cc1 (stereo not given) + C#Cc1c(F)ccc2cc(O)cc(-c3ncc4c(N5CC6CCC(C5)N6)nc(OCC56CCCN5CC(F)C6)nc4c3F)c12	4600

// query 616215-338-R-J1-PDC complex spheroid viability / IC50 / Cc1nc(N2CCC3(CC2)COC(C)C3N)c(CO)nc1Sc1ccnc(N)c1Cl (stereo not given) + C#Cc1c(F)ccc2cc(O)cc(-c3ncc4c(N5CC6CCC(C5)N6)nc(OCC56CCCN5CC(F)C6)nc4c3F)c12 : value?
// result 302

// query # get_value(readout= IC50, system= 616215-338-R-J1-PDC complex spheroid viability) for CC(C)n1nc(-c2ccc3oc(N)nc3c2)c2c(N)ncnc21 + C#Cc1c(F)ccc2cc(O)cc(-c3ncc4c(N5CC6CCC(C5)N6)nc(OCC56CCCN5CC(F)C6)nc4c3F)c12
// result 59.9

// query Lab request: please report IC50 under test system 616215-338-R-J1-PDC complex spheroid viability for C[C@@H](NC(=O)c1ncnc(N)c1Cl)c1ncc(C(=O)Nc2cc(C(F)(F)F)c(Cl)cn2)s1 + C#Cc1c(F)ccc2cc(O)cc(-c3ncc4c(N5CC6CCC(C5)N6)nc(OCC56CCCN5CC(F)C6)nc4c3F)c12
// result 3610

// query Kindly state the measured IC50 obtained for O=C(c1ccc(F)c(F)c1Nc1ccc(I)cc1F)N1CC(O)([C@@H]2CCCCN2)C1 + C#Cc1c(F)ccc2cc(O)cc(-c3ncc4c(N5CC6CCC(C5)N6)nc(OCC56CCCN5CC(F)C6)nc4c3F)c12 with 616215-338-R-J1-PDC complex spheroid viability.
// result 19

// query Item CCN1CCN(Cc2ccc(Nc3ncc(F)c(-c4cc(F)c5nc(C)n(C(C)C)c5c4)n3)nc2)CC1 + C#Cc1c(F)ccc2cc(O)cc(-c3ncc4c(N5CC6CCC(C5)N6)nc(OCC56CCCN5CC(F)C6)nc4c3F)c12 with 616215-338-R-J1-PDC complex spheroid viability - IC50?
// result 175

// query Request - read-out IC50 | tested on 616215-338-R-J1-PDC complex spheroid viability | compound CC1(O)CCCC1n1c(=O)c(C(F)F)cc2cnc(NC3CCN(S(C)(=O)=O)CC3)nc21 (stereo not given) + C#Cc1c(F)ccc2cc(O)cc(-c3ncc4c(N5CC6CCC(C5)N6)nc(OCC56CCCN5CC(F)C6)nc4c3F)c12
// result 132

// query GET /values?readout=IC50&system=616215-338-R-J1-PDC complex spheroid viability&item= NC1c2ccccc2OC12CCN(c1cnc3c(N4CCCc5ncccc54)n[nH]c3n1)CC2 (stereo not given) + C#Cc1c(F)ccc2cc(O)cc(-c3ncc4c(N5CC6CCC(C5)N6)nc(OCC56CCCN5CC(F)C6)nc4c3F)c12
// result 34.7

// query Record CCC(CC)c1cc(NC2CCC(N)C2)n2nccc2n1 (stereo not given) + C#Cc1c(F)ccc2cc(O)cc(-c3ncc4c(N5CC6CCC(C5)N6)nc(OCC56CCCN5CC(F)C6)nc4c3F)c12 : what is its IC50 with 616215-338-R-J1-PDC complex spheroid viability?
// result 1510

###

# Test system: 616215-338-R-J1-PDC complex spheroid viability
# assay-text: Anticancer human tumor 616215-338-R-J1-PDC cell line growth inhibition [RAS];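 also: spheroids exposed to agents for seven days before viability readout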
# reported-conditions: curve of first compound; second compound 0.00949 µM
# IC50 listing for each entry below
Unit nM implied. Number only.

Solved cases below.
compound	measured-value
CC(Nc1ccc2c(c1)OCCn1cc(N3C(=O)OCC3C(F)F)nc1-2)C(N)=O (configuration not stated) + CCn1c(-c2cc(N3CCN(C)CC3)cnc2C(C)OC)c2c3cc(ccc31)-c1csc(n1)CC(NC(=O)C1CC1C)C(=O)N1CCCC(N1)C(=O)OCC(C)(C)C2	281
CC(C)NCC(C(=O)N1CCN(c2ncnc3c2C(C)CC3O)CC1)c1ccc(Cl)cc1 (configuration not stated) + CCn1c(-c2cc(N3CCN(C)CC3)cnc2C(C)OC)c2c3cc(ccc31)-c1csc(n1)CC(NC(=O)C1CC1C)C(=O)N1CCCC(N1)C(=O)OCC(C)(C)C2	2380
CC1(O)CCCC1n1c(=O)c(C(F)F)cc2cnc(NC3CCN(S(C)(=O)=O)CC3)nc21 (configuration not stated) + CCn1c(-c2cccnc2C(C)OC)c2c3cc(ccc31)N1CCOC(CC(NC(=O)C(C(C)C)N(C)C(=O)C3(F)CCN(C(=O)C#CC(C)(C)N(C)C)CC3)C(=O)N3CCCC(N3)C(=O)OCC(C)(C)C2)C1	1340

Continue with the next compound.
// query Record request: IC50 value, item C=CC(=O)Nc1cc(Nc2nccc(-c3cn(C)c4ccccc34)n2)c(OC)cc1N(C)CCN(C)C + CCn1c(-c2cc(N3CCN(C)CC3)cnc2C(C)OC)c2c3cc(ccc31)-c1csc(n1)CC(NC(=O)C1CC1C)C(=O)N1CCCC(N1)C(=O)OCC(C)(C)C2
// result 216

###

# System: 616215-338-R-J1-PDC complex spheroid viability
# assay-text: Anticancer human tumor 616215-338-R-J1-PDC cell line growth inhibition [RAS];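 also: spheroids exposed to agents for seven days before viability readout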;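 as to viability, T/C: 100% = DMSO vehicle control viability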
# reported-conditions: second compound 0.03 µM; first compound 0.1 µM; stronger effect = lower value
measured-attribute: viability, T/C (%)
Your answer should be a plain number; it is taken to be in %.

molecule	viability, T/C, %
CC(C)n1nc(-c2ccc3oc(N)nc3c2)c2c(N)ncnc21 + CCn1c(-c2cc(N3CCN(C)CC3)cnc2C(C)OC)c2c3cc(ccc31)-c1csc(n1)CC(NC(=O)C1CC1C)C(=O)N1CCCC(N1)C(=O)OCC(C)(C)C2	25

Kindly consider the entry below.
// query Request body: readout viability, T/C, system 616215-338-R-J1-PDC complex spheroid viability, query CC(=O)OC12COC1CC(O)C1(C)C(=O)C(O)C3=C(C)C(OC(=O)C(O)C(NC(=O)OC(C)(C)C)c4ccccc4)CC(O)(C(OC(=O)c4ccccc4)C21)C3(C)C (configuration not stated) + CCn1c(-c2cc(N3CCN(C)CC3)cnc2C(C)OC)c2c3cc(ccc31)-c1csc(n1)CC(NC(=O)C1CC1C)C(=O)N1CCCC(N1)C(=O)OCC(C)(C)C2 . Return the value.
// result 13.4
